Assay: Elimination half life in Wistar rat at 10 mg/kg, po measured up to 0 to 72 hrs
Format: ADME, organism-based
Conditions: in vivo, read-out: beta t1/2 (converted)
EXPERIMENTAL ENDPOINT: half-life (h)
# number only, unit h dropped from output

# compound FC(F)(F)c1ccc(CNC2CCN(Cc3ccccc3)CC2)cc1 ; its half-life = 29.2

---

Assay: Cytotoxicity against human SH-SY5Y cells assessed as cell viability at 10 to 80 uM after 48 hrs by MTT assay relative to control
Assay type: cell-based
Settings: read-out: Activity
I'd appreciate it if you could supply viability at 48 h, up to 80 µM values for the items below.

# compound O=[N+]([O-])c1ccc(CNC2CCN(Cc3ccccc3)CC2)cc1 ; its viability at 48 h, up to 80 µM = 76.3 to 96.3%

# compound FC(F)(F)c1ccc(CNC2CCN(Cc3ccccc3)CC2)cc1 ; its viability at 48 h, up to 80 µM = 84.6 to 99.2%
